Assay: Body weight gain in mice
Settings: test compounds 60 mg/kg s.c., prednisolone 10 mg/kg i.p., once a day for 6 days (Days 0-5); average ± standard deviation; non-administered 0.80± 0.48
Decision: Body Weight Gain, Observation Day 7 >= 0.8 yields y, all other cases yield n.

Item CC(=N)NCc1ccc(CC(NC(=O)C(CC(C)C)C(CC(C)C)C(=O)NO)C(=O)NCCO)cc1 (racemic) [Compound No. 91] with Body Weight Gain, Observation Day 7 of 0.8 or above?
y

# check: Body Weight Gain, Observation Day 7 of CNC(=O)[C@H](Cc1ccc(NC(=N)N)cc1)NC(=O)[C@H](CC(C)C)C(CCCc1ccccc1)C(=O)NO (single isomer, unassigned) [Compound No. 130] is greater than or equal to 0.8
n

Would you say CNC(=O)C(CCCN)NC(=O)C(CC(C)C)C(CCCc1ccc(NC(=N)N)cc1)C(=O)NO (racemic) [Compound No. 46] shows Body Weight Gain, Observation Day 7 at minimum 0.8?
y

Entry CC(=N)NCCCC[C@H](NC(=O)[C@H](CC(C)C)C(CCCc1ccccc1)C(=O)NO)C(=O)NCCN(C)C.CC(=O)O.CC(=O)O (mixture of isomers) [Compound No. 44] : is its Body Weight Gain, Observation Day 7 no less than 0.8?
y

Kindly determine if Body Weight Gain, Observation Day 7 recorded for C[C@]12C=CC(=O)C=C1CC[C@@H]1[C@@H]2[C@@H](O)C[C@@]2(C)[C@H]1CC[C@]2(O)C(=O)CO [Prednisolone, reference compound] is above or exactly 0.8.
n

====

Recorded measurements of Leukocyte exudate inhibition rate (%) Total PEC Number, one per entry
Tested on: allergic peritonitis
Experiment: Allergic peritonitis induced with ovalbumin (peritoneal exudate cells)
Assay type: in vivo, Balb/c mice
Conditions: ovalbumin; 30 mg/kg s.c.; lavage 24 hours post-induction
Kindly provide the numeric value in % only, without the unit symbol.

Worked set:
{"compound": "CNC(=O)[C@H](Cc1ccc(N=C(N)N)cc1)NC(=O)C(CC(C)C)[C@H](CCCc1ccccc1)C(=O)NO.Cl (single isomer, unassigned)", "display unit": "%", "value reported": 49.6}
{"compound": "CC(C)C[C@@H](C(=O)N[C@@H](Cc1ccc(CN)cc1)C(=O)O)C(CCCc1ccccc1)C(=O)NO.Cl (mixture of isomers)", "display unit": "%", "value reported": 33.4}
{"compound": "COC(=O)[C@H](Cc1ccc(CN)cc1)NC(=O)[C@H](CC(C)C)[C@H](CCCc1ccccc1)C(=O)NO.Cl", "display unit": "%", "value reported": 31.6}

Turning now to a further compound:
Which value of Leukocyte exudate inhibition rate (%) Total PEC Number has been reported for CNC(=O)[C@H](CCCCN)NC(=O)[C@H](CC(C)C)C(CCCc1ccc(C(=O)OC)cc1)C(=O)NO.Cl (single isomer, unassigned) in the records?
35.1

====

Tested on: mouse experimental atopic dermatitis models
Assay: Auricle edema in experimental atopic dermatitis model (anti-DNP IgE sensitization, DNFB elicitation)
Format: in vivo, Balb/c mice
Details: auricle edema Day 7 post-elicitation; test compounds 60 mg/kg s.c., prednisolone 10 mg/kg i.p.; daily from 3 to 6 days after DNFB-elicitation
metric: % Inhibition vLPR

// solved cases for % Inhibition vLPR follow
{"compound": "CNC(=O)[C@H](Cc1ccc(NC(=N)N)cc1)NC(=O)[C@H](CC(C)C)C(CCCc1ccccc1)C(=O)NO (single isomer, unassigned)", "value reported": "52.7%"}
{"compound": "CC(=O)O.CNC(=O)[C@H](Cc1ccc(CNC(C)=N)cc1)NC(=O)[C@H](CC(C)C)[C@H](CCCc1ccccc1)C(=O)NO", "value reported": "44.7%"}
{"compound": "CNC(=O)C(CCCCNC(C)=N)NC(=O)C(CC(C)C)C(C)C(=O)NO (racemic)", "value reported": "49.5%"}
{"compound": "CC(=O)O.CNC(=O)[C@H](Cc1ccc(CNC(C)=N)cc1)NC(=O)[C@H](CC(C)C)[C@H](O)C(=O)NO", "value reported": "43.6%"}
{"compound": "CC(=O)O.CC(C)C[C@H](C(=O)NO)[C@@H](CC(C)C)C(=O)N[C@@H](Cc1ccc(CN)cc1)C(=O)NCCC(=O)O", "value reported": "20.6%"}

Could you tell me which % Inhibition vLPR is on file for CC(=N)NCCCC[C@H](NC(=O)[C@H](CC(C)C)C(CCCc1ccccc1)C(=O)NO)C(=O)NCCN(C)C.CC(=O)O.CC(=O)O (mixture of isomers) ?
65.6%

Can you look up the measured % Inhibition vLPR of C[C@]12C=CC(=O)C=C1CC[C@@H]1[C@@H]2[C@@H](O)C[C@@]2(C)[C@H]1CC[C@]2(O)C(=O)CO [Prednisolone, reference compound] for me?
24.8%

====

Experiment: Body weight gain in mice
Conditions: test compounds 60 mg/kg s.c., prednisolone 10 mg/kg i.p., once a day for 6 days (Days 0-5); average ± standard deviation; non-administered 1.07± 0.58
Lab note - cut at 1 for Body Weight Gain, Observation Day 10: y if strictly below, n if not.

{"molecule": "CC(=N)NCc1ccc(CC(NC(=O)C(CC(C)C)C(CC(C)C)C(=O)NO)C(=O)NCCO)cc1 (racemic) [Compound No. 91]", "label": "n"}
{"molecule": "CNC(=O)[C@H](Cc1ccc(NC(=N)N)cc1)NC(=O)[C@H](CC(C)C)C(CCCc1ccccc1)C(=O)NO (single isomer, unassigned) [Compound No. 130]", "label": "n"}
{"molecule": "C[C@]12C=CC(=O)C=C1CC[C@@H]1[C@@H]2[C@@H](O)C[C@@]2(C)[C@H]1CC[C@]2(O)C(=O)CO [Prednisolone, reference compound]", "label": "y"}

# TODO verify Body Weight Gain, Observation Day 10 < 1 strictly for this molecule: CNC(=O)C(CCCN)NC(=O)C(CC(C)C)C(CCCc1ccc(NC(=N)N)cc1)C(=O)NO (racemic) [Compound No. 46]
n

Check if Body Weight Gain, Observation Day 10 falls below 1 for CC(=N)NCCCC[C@H](NC(=O)[C@H](CC(C)C)C(CCCc1ccccc1)C(=O)NO)C(=O)NCCN(C)C.CC(=O)O.CC(=O)O (mixture of isomers) [Compound No. 44] .
n

Please determine if CNC(=O)C(CCCCNC(C)=N)NC(=O)C(CC(C)C)C(C)C(=O)NO (racemic) [Compound No. 22] is below 1 in terms of Body Weight Gain, Observation Day 10.
n

====

Tested on: mouse experimental atopic dermatitis models
Assay: Scratching behavior in experimental atopic dermatitis model
Type: in vivo, mice
Details: 0.1% solution in ethanol, 10 µL per side painted 1 hour pre-elicitation; counts for 15 to 30 and 30 to 45 min post-elicitation; vs solvent control
% Inhibition (scratching behavior) by entry:
Value expressed in %; do not type the unit.

{"compound": "CNC(=O)[C@H](Cc1ccc(N=C(N)N)cc1)NC(=O)C(CC(C)C)[C@H](CCCc1ccccc1)C(=O)NO.Cl (single isomer, unassigned)", "metric": "% Inhibition (scratching behavior)", "value reported": 40.7}
{"compound": "CNC(=O)[C@H](CCCCN)NC(=O)[C@H](CC(C)C)C(CCCc1ccc(C(=O)OC)cc1)C(=O)NO.Cl (single isomer, unassigned)", "metric": "% Inhibition (scratching behavior)", "value reported": 31.1}
{"compound": "CC(C)C[C@@H](C(=O)N[C@@H](Cc1ccc(CN)cc1)C(=O)O)C(CCCc1ccccc1)C(=O)NO.Cl (mixture of isomers)", "metric": "% Inhibition (scratching behavior)", "value reported": 30.3}
{"compound": "COC(=O)[C@H](Cc1ccc(CN)cc1)NC(=O)[C@H](CC(C)C)[C@H](CCCc1ccccc1)C(=O)NO.Cl", "metric": "% Inhibition (scratching behavior)", "value reported": 49.9}

Item under review: CNC(=O)[C@H](Cc1ccc(N=C(N)N)cc1)NC(=O)[C@@H](CC(=O)NO)CC(C)C.O=S(=O)(O)O . Reported % Inhibition (scratching behavior)?
54.1

====

System: mouse experimental atopic dermatitis models
Experiment: Auricle edema in experimental atopic dermatitis model (anti-DNP IgE sensitization, DNFB elicitation)
Assay type: in vivo, Balb/c mice
Settings: 7 or 8 days post-elicitation; 60 µg/ear/dose in ethanol painted on auricles twice a day, 1 hour pre-elicitation, 6 hours, 1 to 6 days post-elicitation
Reported % Inhibition vLPR values are given for each entry in this list.
Report as a plain number; the unit % is understood.

{"compound": "CNC(=O)[C@H](Cc1ccc(N=C(N)N)cc1)NC(=O)C(CC(C)C)[C@H](CCCc1ccccc1)C(=O)NO.Cl (single isomer, unassigned)", "% Inhibition vLPR (%)": 31}
{"compound": "CC(C)C[C@@H](C(=O)N[C@@H](Cc1ccc(CN)cc1)C(=O)O)C(CCCc1ccccc1)C(=O)NO.Cl (mixture of isomers)", "% Inhibition vLPR (%)": 52}

Fill in the blank: the reported % Inhibition vLPR of COC(=O)[C@H](Cc1ccc(CN)cc1)NC(=O)[C@H](CC(C)C)[C@H](CCCc1ccccc1)C(=O)NO.Cl is ____.
46

Fill in the blank: the reported % Inhibition vLPR of CNC(=O)[C@H](CCCCN)NC(=O)[C@H](CC(C)C)C(CCCc1ccc(C(=O)OC)cc1)C(=O)NO.Cl (single isomer, unassigned) is ____.
35

What value of % Inhibition vLPR has been reported for the following compound? CNC(=O)[C@H](Cc1ccc(N=C(N)N)cc1)NC(=O)[C@@H](CC(=O)NO)CC(C)C.O=S(=O)(O)O
35
